Assay: In vitro enzymatic stability in human blood serum (LC-SWATH-MS)
Format: in vitro ADME
Conditions: human blood serum (pooled from four healthy persons), 37 °C, after 24 h, read-out: initial substrate concentration remaining
value-type: remaining at 24 h

Request: Value lookup for remaining at 24 h; key = N=C(N)NCCC[C@H](NC(=O)[C@@H]1CC2CCCCC2N1C(=O)[C@H](CCN)NC(=O)NC[C@@H](N)CCCCNC(=O)[C@@H](N)CCNC(=N)N)C(=O)O (stereo partly shown)
Response: ~25%

---

Assay: In vitro enzymatic stability in human blood serum (LC-SWATH-MS)
Assay type: in vitro ADME
Details: human blood serum (pooled from four healthy persons), 37 °C, after 96 h, read-out: compound still intact
Starred links: 1 amine or outer side, 2 acyl side, 3 side chain; linkers in the order of their positions; H or OH if unused. Non-standard residues stand in square brackets, D forms with d. Residues, ends and D or L forms follow the SMILES beside them. Groups on a side chain read outwards from the residue. ξ: configuration not given here. *: point of attachment. Oic(3aξ,7aξ) = O=C(O)[C@@H]1CC2CCCCC2N1; X1 = N=C(N)NCCCC[C@H](N)CN*; Dab = NCC[C@H](N)C(=O)O; CO = O=C([*:1])[*:2]
value-type: remaining at 96 h (%)
Unit % implied. Number only.

Request: Value lookup for remaining at 96 h; key = N=C(N)NCCC[C@H](N)CNC(=O)NC[C@H](N)CNC(=O)N[C@@H](CCN)C(=O)N1C2CCCCC2C[C@H]1C(=O)N[C@@H](CCCNC(=N)N)C(=O)O (some centres unmarked)
Response: 50

Request: Value lookup for remaining at 96 h; key = N=C(N)NCCCC[C@H](N)CNC(=O)NCC[C@H](N)C(=O)N[C@@H](CCN)C(=O)N1C2CCCCC2C[C@H]1C(=O)N[C@@H](CCCNC(=N)N)C(=O)O (stereo partly drawn) [Compound 6, H-Dab(hArg^U)Dab-Oic-Arg-OH] (H-[Dab]([CO-X1])[Dab][Oic(3aξ,7aξ)]R-OH)
Response: 50

---

Molecular target: VEGF-A165/NRP-1 complex (Homo sapiens, UniProt O14786)
Construct: purchased R&D Systems
Sequence (O14786 22-641 limits assumed, one chain of several): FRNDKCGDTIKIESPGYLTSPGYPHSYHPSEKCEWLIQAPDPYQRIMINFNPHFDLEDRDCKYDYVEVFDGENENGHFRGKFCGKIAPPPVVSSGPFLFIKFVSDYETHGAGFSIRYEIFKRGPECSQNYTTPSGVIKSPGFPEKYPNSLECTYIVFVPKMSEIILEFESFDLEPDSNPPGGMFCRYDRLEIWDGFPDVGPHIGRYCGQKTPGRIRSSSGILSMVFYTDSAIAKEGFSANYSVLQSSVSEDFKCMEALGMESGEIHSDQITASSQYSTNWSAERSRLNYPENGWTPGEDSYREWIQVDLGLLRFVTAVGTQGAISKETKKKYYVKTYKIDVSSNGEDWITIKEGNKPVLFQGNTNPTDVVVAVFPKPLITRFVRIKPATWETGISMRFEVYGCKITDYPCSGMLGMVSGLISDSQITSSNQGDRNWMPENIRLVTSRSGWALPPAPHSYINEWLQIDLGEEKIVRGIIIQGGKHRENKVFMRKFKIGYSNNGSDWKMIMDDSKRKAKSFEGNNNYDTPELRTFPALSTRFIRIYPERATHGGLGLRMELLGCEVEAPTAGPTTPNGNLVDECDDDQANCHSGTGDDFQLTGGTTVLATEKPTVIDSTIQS
Assay: Competitive ELISA-like assay, inhibition of bt-VEGF-A165 binding to immobilized NRP-1
Conditions: recombinant human NRP-1, bt-VEGF-A165, chemiluminescence; read-out: IC50, VEGF-A165/NRP-1 complex inhibitory effect
I'd be grateful if you could share measured IC50 for these entries.
Unit µM implied. Number only.

Request: Value lookup for IC50; key = N=C(N)NCCC[C@H](N)CNC(=O)NC[C@H](N)CNC(=O)N[C@@H](CCN)C(=O)N1C2CCCCC2C[C@H]1C(=O)N[C@@H](CCCNC(=N)N)C(=O)O (stereo partly drawn) [Compound 7]
Response: 2.1

Request: Value lookup for IC50; key = N=C(N)NCCCC[C@H](N)C(=O)NCC[C@H](N)CNC(=O)N[C@@H](CCN)C(=O)N1C2CCCCC2C[C@H]1C(=O)N[C@@H](CCCNC(=N)N)C(=O)O (stereo partly drawn) [Compound 1]
Response: 1.8

Request: Value lookup for IC50; key = N=C(N)NCCC[C@H](NC(=O)[C@@H]1CC2CCCCC2N1C(=O)[C@H](CCN)NC(=O)NC[C@@H](N)CCCNC(=O)[C@@H](N)CCCNC(=N)N)C(=O)O (stereo partly drawn) [Compound 2]
Response: 2.1

These measurements were taken from paper PMC7793531.
